Data origin: patent US20220031857A1

- EXPERIMENTAL_TARGET: T1, recombinant mouse TfR1 (transferrin receptor 1) (mouse, UniProt Q62351 89-763)
- T1 construct: Bought recombinant His-tagged protein; also called mTfR1
- T1 sequence (Q62351 89-763 limits assumed): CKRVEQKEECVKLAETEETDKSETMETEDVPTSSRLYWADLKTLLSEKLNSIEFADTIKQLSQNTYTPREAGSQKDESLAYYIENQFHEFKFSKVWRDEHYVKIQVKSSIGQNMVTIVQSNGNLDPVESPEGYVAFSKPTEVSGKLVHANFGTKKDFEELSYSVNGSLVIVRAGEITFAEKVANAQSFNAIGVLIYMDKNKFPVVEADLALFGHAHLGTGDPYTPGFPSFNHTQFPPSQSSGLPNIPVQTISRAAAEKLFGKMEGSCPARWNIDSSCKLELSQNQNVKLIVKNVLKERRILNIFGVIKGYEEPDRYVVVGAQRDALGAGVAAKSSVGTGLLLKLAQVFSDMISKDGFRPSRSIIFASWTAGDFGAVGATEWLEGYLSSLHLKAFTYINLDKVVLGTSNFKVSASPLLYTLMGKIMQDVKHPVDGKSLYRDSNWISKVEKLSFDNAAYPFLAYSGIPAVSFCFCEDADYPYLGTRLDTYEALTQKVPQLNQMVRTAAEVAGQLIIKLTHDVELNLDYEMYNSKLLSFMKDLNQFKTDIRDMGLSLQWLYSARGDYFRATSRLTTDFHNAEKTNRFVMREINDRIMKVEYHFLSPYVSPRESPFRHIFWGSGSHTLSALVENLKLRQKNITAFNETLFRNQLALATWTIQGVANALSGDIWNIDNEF
- EXPERIMENT_SUMMARY: ELISA, plate coated with 1 µg/ml recombinant mouse TfR1, purified VNAR-Fc titrated, 4-parameter fit
Please provide measured pEC50 for the entries that follow.
Scale explanation: pEC50 corresponds to minus log10 of a concentration expressed in moles per litre.

Just so you know, measured pEC50 for Clone 10 VNAR-Fc fusion protein (Fc fusion, Bivalent VNAR-Fc; also called clone 10-Fc; Clone 10-hFc; not shown: glycine/serine linker (GxSx)n extending the hinge; human IgG1 Fc (hinge, CH2, CH3) of pFUSE-hIgG1e3-Fc2; G236 also deleted) ARVDQTPQTITKETGESLTINCVLRDSNCALSSTYWYRKKSGSTNEENISKGGRYVETVNSGSKSFSLRINDLTVEDSGTYRCNVVQYPSYNNYFWCDVYGDGTAVTVNA came out at 7.92

The measured pEC50 associated with Clone 12 VNAR-Fc fusion protein (Fc fusion, Bivalent VNAR-Fc; not shown: glycine/serine linker (GxSx)n extending the hinge; human IgG1 Fc (hinge, CH2, CH3) of pFUSE-hIgG1e3-Fc2; G236 also deleted) ARVDQTPQTITKETGESLTINCVLRDSICALSSTHWYRKKSGSTNEESISKGGRYVETVNSGSKSFSLRINDLTVEDSGTYRCKVVRSGVGPCWADVYGGGTAVTVNA reads 5.81

Record Clone 1 VNAR-Fc fusion protein (Fc fusion, Bivalent VNAR-Fc; also called clone 1-Fc; not shown: glycine/serine linker (GxSx)n extending the hinge; human IgG1 Fc (hinge, CH2, CH3) of pFUSE-hIgG1e3-Fc2; G236 also deleted) ARVDQTPQTITKETGESLTINCVLRDNNCALSTTYWYRKKSGSTNEENISKGGRYVETVNSGSKSFSLKINDLTVEDSGTYRCNVRDVQACGNDWVWLDVYGGGTVVTVNA . Reported pEC50: 7.80

The binder listed as Clone 39 VNAR-Fc fusion protein (Fc fusion, Bivalent VNAR-Fc; not shown: glycine/serine linker (GxSx)n extending the hinge; human IgG1 Fc (hinge, CH2, CH3) of pFUSE-hIgG1e3-Fc2; G236 also deleted) ARVDQTPQTITKETGESLTINCVLRDSNCALSSTLWYRTKSGSRNEESISKGGRYVETVNSGSKSFSLKINDLTVEDSGTYRCNVQGMVYDGSSFWWCDVYGDSTAVTVNA shows pEC50 equal to 5.82

Short answer for Clone 7 VNAR-Fc fusion protein (Fc fusion, Bivalent VNAR-Fc; not shown: glycine/serine linker (GxSx)n extending the hinge; human IgG1 Fc (hinge, CH2, CH3) of pFUSE-hIgG1e3-Fc2; G236 also deleted) ARVDQTPQTITKETGESLTINCVLRDSNCELSSTYWYRKKSGSTNEARISKGGRYVETVNSGSKSFSLKINDLTVEDSGTYRCNVLTTDSYDLGDVYGDGTVVTVNA : pEC50 was 5.27

Given item Clone 16 VNAR-Fc fusion protein (Fc fusion, Bivalent VNAR-Fc; not shown: glycine/serine linker (GxSx)n extending the hinge; human IgG1 Fc (hinge, CH2, CH3) of pFUSE-hIgG1e3-Fc2; G236 also deleted) ARVDQTPQTITKETGESLTINCVLRDSNCALPSTYWYRKKSGSTNEESISKGGRYVETVNSGSKSFSLRINDLTVKDSGTYRCKVDLPRYLCFSQYGRWYDVYGDGTAVTVNA , the value recorded as its pEC50 is 5.14
